Where do the numbers come from? From the NTF2 design screens of Basanta et al. (2020).

Experiment: protease stability score; higher = more stable; yeast display proteolysis, trypsin and chymotrypsin;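 note: log10 excess protease needed over predicted unfolded state with 0 meaning unfolded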
ENDPOINT LABEL: protease stability score

DESLQHMAEEMLEVWQTGDKERAATMMDKDARVRVGDHTVRGRESLQKNIETEKEQMRVQIRHVDARVHNGRVDVKVEVELDHNGKPQRVVYNIDFRAHNGRVQEIHIQEDG = -0.181
DEEDDARKAAEALKAFFKGDPEKFRDLADEDVQVRIGDNVYTGRTEANEAVENFKRQVDHVEFKDLNNRGNKVFADVVVRFNGEDIRVTLYAEVHNGKLKYMQVDPTAQKQLEK = 0.65
DEEEVRKVLERLQKAVEKGNADEIAKLLKDDGEFVLIDERYKGQEDAKQVIKELQDKGFEFHTEEIQVKGGTAEVKTVWRVGDRELHLKVRYVVRGDKVDQVHAQWSKDAKEDLKKG = 0.691
DEENRKQFEEIVRVWNKGDEKRFNNLFDPNARFRYGDKEYKGNQSLMNWWRHLKKQARVEIDVKEVHVDGDKVHAHFRVTFDINGRPETQDVDVVLTVQNGRAKNFDNRIDPEFMRRVQS = 0.141
DEKVLKALHDVFRAQEHGDERRAMRNLDPNVKIDVGDEQYHGRESWARRIVQERRDMKVEYHKIDFDDRGDKAKITARYEFTENGDPRHVTIDMEAKATNGKVTTMEQRDDG = -0.103
DESKEAHTLAKKYVELVKKGDQEKMKTMFDPNAKAHIGDKTYHGMTDFVETLVEQAKRVDHQSVDVKSVEVDGDHIDVEVTVKYTYNGQNRSNVERFIVRNHNGKWRVKEWHDK = -0.145

---

Assay: protease stability score; higher = more stable; yeast display proteolysis, trypsin and chymotrypsin;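 note: log10 excess protease needed over predicted unfolded state with 0 meaning unfolded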
ENDPOINT LABEL: protease stability score

DEKAKDLFSKVMEAIRTGDEQKIRDNADPNVSVRYGDRNLTGREKVAETNYKIKRHMRIKIDHVRMEVHNGEAEVNVKRVITINGRPTRDTYRLIVVAQGDKLKSVVWKFSEEQRKRLEQ = 0.411
DQEEAKKVAEQAIKYVENGNLTELMDMLKDGGEYQVADDKKHGKEVLYKLVKILQRLGVEVEFKRTEIEGNTVTTDVDYRLGDEEATAQAHAEVQGGRIDRVQIDADEHLKKWIKHG = 0.606
DNSELAQQRWRDLRKAISENDPKTARDLFDPNVRIEVGEKTLHGRKAASDFVKEIKKDYDHAYLQVTDVDVQGEHVHAHVVLHAEHNGKTTSVEMEMEAVFQGDKLRVRMMRKS = 0.641
DSEERHDFAHKVMEVFQQGDPDQMRDMADPNVRLHVGEKNVTGRDRVRTALTEFRQRVDHVQVDHVHVTGDKIVIHATVEINGRRRRVIIVARVRNGRIHEIEVDLK = 1.61
DKDTEQHFADSMNQIIEQGNPKKAMKLADKDVQMQIGDKTYKGREEMMKQIKRFWKHVDEIRVKDVKVNDGQININVILDFNGKKVEVRIVIHVHNGKIHELRVDPKDKEQFEK = 1.09
DEHHTQEARKFLENQQTGNETELQKYADPNASAQIGDKRVHGMEKFAHTIRKEVDELRMTIHDVRFDANGEKVIVHVDVQYDHNGRPERATMVVLFKHNNGKATEITARYDK = 0.411

---

Entries and their protease stability score
Experiment: protease stability score; higher = more stable; yeast display proteolysis, trypsin and chymotrypsin;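 note: log10 excess protease needed over predicted unfolded state with 0 meaning unfolded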
ENDPOINT LABEL: protease stability score

DETQMKHLAEEFNKAQKRGNEEKLRELIDKDVTMKVGDKEVHGRERVADKMRKMIERADSISIRDVKSQGDRAEIDMEYRVDGRHRVVIVILRFSNGRIVYAEFQSS = 1.08
DEKRVKELADKIFKDIINGNEEVVRKLGDPDVRYEYLDKKFRGEEAMIFIVQVVKRVGAEVKVERKEVRGDTAKADFRYRKGDTEVKTTAEVIYEGDKLKEARVHLTDEVKKVMTQG = -0.006
DEEALKHAKKLLNIITNGNPSEAQKLFDPNAKAHIGDQTLTGREDYVRDLQEKKDRMRYKIKSMDAQTDGEKVRFDIKYDFNINGQPRHASVVIRLKLHNGKIVEIRVQIDPEQLKQHRQ = 1.09
